target: T1, Aβ1-42 fibrils (human); experiment: SPR (BIAcore T200); Aβ1-42 fibrils immobilized, antibody as analyte; global 1:1 fit; apparent KD (avidity)
T1 construct: Aβ1-42 polypeptide, HFIP-treated, incubated in 10 mM HCl at 37 C for 24 h, pelleted fibrillar fraction, sonicated; Multimeric fibril; also called fibril Aβ42; fibrillar Aβ42
T1 sequence (peptide, as listed by the source): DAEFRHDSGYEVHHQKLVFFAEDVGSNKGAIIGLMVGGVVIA
measured.quantity: Kd (nM)

[[record]]
binder = "h2731 (antibody, V domains shown, Humanized IgG mAb; Only the variable domains are tied to the construct) VH: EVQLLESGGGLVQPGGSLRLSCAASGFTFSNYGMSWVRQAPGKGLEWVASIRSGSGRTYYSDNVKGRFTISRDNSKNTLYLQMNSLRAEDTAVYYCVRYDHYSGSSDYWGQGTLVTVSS VL: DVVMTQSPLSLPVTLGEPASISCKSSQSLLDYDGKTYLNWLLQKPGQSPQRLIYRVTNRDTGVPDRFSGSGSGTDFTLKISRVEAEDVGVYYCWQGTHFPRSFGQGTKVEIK"
measured_quantity = "Kd"
reported_result = 0.0704


Hey, just so you know, these numbers are from patent US20230331828A1.
